This collection of values is drawn from paper PMC9230575.

What logD was measured for each of the following?
- PROCEDURE_DETAILS: physchem
- MEASUREMENT_CONDITIONS: 1-octanol/phosphate buffer, pH 7.4
- Experimental: Briefly, aliquots (2 μL) of the ^68Ga-labeled peptides were added to a vial containing 3 mL of 1-octanol and 3 mL of 0.1 M phosphate buffer (pH 7.4). The mixture was vortexed for 1 min and then centrifuged at 5000 rpm for 10 min. Samples of the 1-octanol (1 mL) and buffer (1 mL) layers were taken and counted in a gamma counter. LogD7.4 was calculated using the following equation: LogD7.4 = log10[(counts in 1-octanol phase)/(counts in buffer phase)].
*1 amine or outer side, *2 acyl side, *3 side chain or, on linkers, in order; H or OH if unused. Where a SMILES comes first, the peptide text is derived from it. [ ]: non-standard residue; d: D form. The star is where a group is joined. DOTA = O=C(O)CN1CCN(CC(=O)O)CCN(CC(=O)*)CCN(CC(=O)O)CC1; Leuψ(CH2N)ThzNH2 = CC(C)C[C@@H](CN1CSC[C@H]1C(N)=O)N*; d2Nal = N[C@H](Cc1ccc2ccccc2c1)C(=O)O; Cya = N[C@@H](CS(=O)(=O)O)C(=O)O; X1 = O=C(CN1CCC(N[*:1])CC1)[*:2]
# print the numeric value only

logD for CC(C)C[C@@H](CN1CSC[C@H]1C(N)=O)NC(=O)[C@H](Cc1c[nH]cn1)NC(=O)CNC(=O)[C@@H](NC(=O)[C@H](C)NC(=O)[C@H](Cc1c[nH]c2ccccc12)NC(=O)[C@H](CCC(N)=O)NC(=O)[C@@H](Cc1ccccc1)NC(=O)CN1CCC(NC(=O)CN2CCN(CC(=O)O)CCN(CC(=O)O)CCN(CC(=O)O)CC2)CC1)C(C)C [[^68Ga]Ga-TacsBOMB2, metal not drawn] is -2.39

logD for CC(C)C[C@@H](CN1CSC[C@H]1C(N)=O)NC(=O)[C@H](Cc1c[nH]cn1)NC(=O)CNC(=O)[C@@H](NC(=O)[C@H](C)NC(=O)[C@H](Cc1c[nH]c2ccccc12)NC(=O)[C@H](CCC(N)=O)NC(=O)[C@@H](Cc1ccc2ccccc2c1)NC(=O)CN1CCC(NC(=O)[C@H](CS(=O)(=O)O)NC(=O)CN2CCN(CC(=O)O)CCN(CC(=O)O)CCN(CC(=O)O)CC2)CC1)C(C)C [[^68Ga]Ga-TacsBOMB6, metal not drawn] ({DOTA}-[Cya][X1][d2Nal]QWAVGH-{Leuψ(CH2N)ThzNH2}) is -2.55

logD for CC(C)C[C@@H](CN1CSC[C@H]1C(N)=O)NC(=O)[C@H](Cc1c[nH]cn1)NC(=O)CNC(=O)[C@@H](NC(=O)[C@H](C)NC(=O)[C@H](Cc1c[nH]c2ccccc12)NC(=O)[C@H](CCC(N)=O)NC(=O)[C@@H](Cc1ccc2ccccc2c1)NC(=O)CN1CCC(NC(=O)CN2CCN(CC(=O)O)CCN(CC(=O)O)CCN(CC(=O)O)CC2)CC1)C(C)C [[^68Ga]Ga-TacsBOMB3, metal not drawn] is -1.75

logD for CC(C)C[C@H](NC(=O)C[C@H](O)[C@H](CC(C)C)NC(=O)[C@H](Cc1c[nH]cn1)NC(=O)CNC(=O)[C@@H](NC(=O)[C@H](C)NC(=O)[C@H](Cc1c[nH]c2ccccc12)NC(=O)[C@H](CCC(N)=O)NC(=O)[C@@H](Cc1ccccc1)NC(=O)CN1CCC(NC(=O)CN2CCN(CC(=O)O)CCN(CC(=O)O)CCN(CC(=O)O)CC2)CC1)C(C)C)C(N)=O [[^68Ga]Ga-RM2, metal not drawn, reference compound] is -2.76
